Entries annotated with measured IC50
systemName: T1, CD3 expressed on cell-surface of primary human T cells (human, UniProt P07766 23-207; P04234 22-171)
T1 construct: also called cell-surface CD3; human CD3
T1 sequence (P07766 23-207 limits assumed, chain 1 of 2): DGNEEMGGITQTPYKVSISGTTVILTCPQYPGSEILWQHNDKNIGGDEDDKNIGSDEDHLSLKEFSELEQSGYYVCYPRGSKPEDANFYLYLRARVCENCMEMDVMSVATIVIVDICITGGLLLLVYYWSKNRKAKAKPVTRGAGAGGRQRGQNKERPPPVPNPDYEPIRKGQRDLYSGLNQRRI
T1 sequence (P04234 22-171 limits assumed, chain 2 of 2): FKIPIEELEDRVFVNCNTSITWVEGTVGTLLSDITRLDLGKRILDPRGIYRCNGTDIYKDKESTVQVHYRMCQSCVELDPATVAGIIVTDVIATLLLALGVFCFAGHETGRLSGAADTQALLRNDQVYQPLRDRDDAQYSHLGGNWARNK
experimentSummary: flow cytometry competition vs murine SP34-AF488 on human T cells, average
measure: IC50 (µg/mL)

binder	testValue
mSP34 Fab-HF (Fab, V domains shown, also called mSP34 chimeric Fab) VH: EVKLLESGGGLVQPKGSLKLSCAASGFTFNTYAMNWVRQAPGKGLEWVARIRSKYNNYATYYADSVKDRFTISRDDSQSILYLQMNNLKTEDTAMYYCVRHGNFGNSYVSWFAYWGQGTLVTVSA VL: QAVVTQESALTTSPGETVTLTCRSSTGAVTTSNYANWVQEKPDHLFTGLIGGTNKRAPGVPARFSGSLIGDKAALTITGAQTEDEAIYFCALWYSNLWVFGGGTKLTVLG	0.68
huSP34.13.7 Fab-HF (Fab, V domains shown) VH: EVQLVESGGGLVQPGGSLRLSCAASGFTFSTYAMNWVRQAPGKGLEWVGRIRSKYNNYATYYAASVKGRFTISRDDSKNTLYLQMNSLRTEDTAVYYCVRHGNFGHSYVSWFAYWGQGTLVTVSS VL: QAVVTQEPSLTVSPGGTVTLTCRSSTGAVTTGHYANWVQQKPGQAPRGLIGGTNKRAPGVPARFSGSLLGGKAALTISGAQPEDEAEYYCALWYSNLWVFGGGTKLTVL	0.31
